tested on: Micrococcus luteus; experiment: Antibacterial activity against Micrococcus luteus MTCC 106 measured after 24 hrs by NCCL protocol based broth dilution method; assay type: functional; details: MTCC 106, 24 h
Binarize MIC at 200 µg/mL; below is Y, at or above is N.

Some entries whose results are on file:
* Cc1ccc(/N=C/c2cccc(B(O)O)c2)cc1 | N
* CC1(C)O[C@H]2O[C@@H]3COB(c4ccc(C=O)cc4)O[C@@H]3[C@H]2O1 | Y
* CC1(C)O[C@H]2O[C@@H]3COB(c4ccc(/C=N/c5ccc(Br)cc5)cc4)O[C@@H]3[C@H]2O1 | N
* OB(O)c1ccc(/C=N/c2ccc(F)cc2)cc1 | N

Hi there! Is MIC for CC1(C)O[C@H]2O[C@@H]3COB(c4cccc(/C=N/c5ccc(F)cc5)c4)O[C@@H]3[C@H]2O1 below 200 µg/mL, do you know?
Y

Hi there! Is MIC for CC1(C)O[C@H]2O[C@@H]3COB(c4cccc(/N=C/c5cc([N+](=O)[O-])ccc5O)c4)O[C@@H]3[C@H]2O1 below 200 µg/mL, do you know?
Y

Hi there! Is MIC for COc1ccc(/C=N/c2cccc(B3OC[C@H]4O[C@@H]5OC(C)(C)O[C@@H]5[C@H]4O3)c2)c(O)c1 below 200 µg/mL, do you know?
Y

====

system: Micrococcus luteus; assay: Antibacterial activity against Micrococcus luteus MTCC 106 measured after 24 hrs by NCCL protocol based broth dilution method; format: functional; details: MTCC 106, 24 h
property.measured: MIC (µg/mL)
Please reply with the bare figure in µg/mL and do not write the unit itself.

The cases that follow already have their MIC on record.
* CC1(C)O[C@H]2O[C@@H]3COB(c4cccc(/N=C/c5ccccc5O)c4)O[C@@H]3[C@H]2O1 | 62.5
* CC1(C)O[C@H]2O[C@@H]3COB(c4cccc(/C=N/c5ccc(Cl)cc5)c4)O[C@@H]3[C@H]2O1 | 125
* Cc1ccc(/N=C/c2ccc(B3OC[C@H]4O[C@@H]5OC(C)(C)O[C@@H]5[C@H]4O3)cc2)cc1 | 125

Turning to the following compound.
Which MIC value belongs to CC(C)c1ccc(/N=C/c2ccc(B3OC[C@H]4O[C@@H]5OC(C)(C)O[C@@H]5[C@H]4O3)cc2)cc1 ?
250

====

system: Salmonella typhi; test: Antibacterial activity against Salmonella typhi assessed as zone of inhibition at 100 ug/well measured after 24 hrs by agar well diffusion method; type: functional, Salmonella enterica subsp. enterica serovar Typhi; details: Salmonella enterica, read-out: DIZ
property.measured: zone of inhibition at 100 µg/disc (mm)
Please reply with the bare figure in mm and do not write the unit itself.

The cases that follow already have their zone of inhibition at 100 µg/disc on record.
- CC1(C)O[C@H]2O[C@@H]3COC(c4cccc(C=O)c4)O[C@@H]3[C@H]2O1 (stereo not given in full): 0
- CC1(C)O[C@H]2O[C@@H]3COB(c4cccc(/N=C/c5cc([N+](=O)[O-])ccc5O)c4)O[C@@H]3[C@H]2O1: 28
- Cc1ccc(/N=C/c2cccc(B3OC[C@H]4O[C@@H]5OC(C)(C)O[C@@H]5[C@H]4O3)c2)cc1: 20
- CC1(C)O[C@H]2O[C@@H]3COB(c4cccc(/C=N/c5ccc(F)cc5)c4)O[C@@H]3[C@H]2O1: 24

Which zone of inhibition at 100 µg/disc value belongs to CC1(C)O[C@H]2O[C@@H]3COB(c4ccccc4C=O)O[C@@H]3[C@H]2O1 ?
26

Which zone of inhibition at 100 µg/disc value belongs to CC(C)c1ccc(/N=C/c2ccc(B3OC[C@H]4O[C@@H]5OC(C)(C)O[C@@H]5[C@H]4O3)cc2)cc1 ?
22

Which zone of inhibition at 100 µg/disc value belongs to CC1(C)O[C@H]2O[C@@H]3COB(c4ccc(/C=N/c5ccccc5)cc4)O[C@@H]3[C@H]2O1 ?
20

Which zone of inhibition at 100 µg/disc value belongs to CC1(C)O[C@H]2O[C@@H]3COC(c4ccc(C=O)cc4)O[C@@H]3[C@H]2O1 (stereo not given in full) ?
0

Which zone of inhibition at 100 µg/disc value belongs to CC1(C)O[C@H]2O[C@@H]3COB(c4ccccc4F)O[C@@H]3[C@H]2O1 ?
11

Which zone of inhibition at 100 µg/disc value belongs to CC1(C)O[C@H]2O[C@@H]3COB(c4cccc(C=O)c4)O[C@@H]3[C@H]2O1 ?
18

Which zone of inhibition at 100 µg/disc value belongs to CC1(C)O[C@H]2O[C@@H]3COB(c4ccc(/C=N/c5ccc(F)cc5)cc4)O[C@@H]3[C@H]2O1 ?
20

Which zone of inhibition at 100 µg/disc value belongs to CC1(C)O[C@H]2O[C@@H]3COB(c4ccc(C=O)cc4)O[C@@H]3[C@H]2O1 ?
22

Which zone of inhibition at 100 µg/disc value belongs to CC1(C)O[C@H]2O[C@@H]3COB(c4cccc(/N=C/c5ccc6ccccc6c5O)c4)O[C@@H]3[C@H]2O1 ?
23

Which zone of inhibition at 100 µg/disc value belongs to COc1ccc(/C=N/c2cccc(B3OC[C@H]4O[C@@H]5OC(C)(C)O[C@@H]5[C@H]4O3)c2)c(O)c1 ?
21

Which zone of inhibition at 100 µg/disc value belongs to CC1(C)O[C@H]2O[C@@H]3COB(c4cccc(/C=N/c5ccc(Br)cc5)c4)O[C@@H]3[C@H]2O1 ?
22

====

system: Klebsiella pneumoniae; assay: Antibacterial activity against Klebsiella pneumoniae MTCC 3384 assessed as zone of inhibition at 100 ug/well measured after 24 hrs by agar well diffusion method; type: functional; settings: MTCC 3384, 24 h, read-out: DIZ
property.measured: zone of inhibition at 100 µg/disc (mm)
Please reply with the bare figure in mm and do not write the unit itself.

The cases that follow already have their zone of inhibition at 100 µg/disc on record.
* CC1(C)O[C@H]2O[C@@H]3COC(c4ccc(C=O)cc4)O[C@@H]3[C@H]2O1 (stereo not given in full) | 0
* Cc1ccccc1B1OC[C@H]2O[C@@H]3OC(C)(C)O[C@@H]3[C@H]2O1 | 6
* CC1(C)O[C@H]2O[C@@H]3COC(c4ccc(/C=N\c5ccc(F)cc5)cc4)O[C@@H]3[C@H]2O1 (stereo not given in full) | 0

Which zone of inhibition at 100 µg/disc value belongs to CC1(C)O[C@H]2O[C@@H]3COB(c4cccc(/C=N/c5ccc(Cl)cc5)c4)O[C@@H]3[C@H]2O1 ?
22

Which zone of inhibition at 100 µg/disc value belongs to O=[N+]([O-])c1ccc(O)c(/C=N/c2cccc(B(O)O)c2)c1 ?
0

Which zone of inhibition at 100 µg/disc value belongs to CC1(C)O[C@H]2O[C@@H]3COB(c4ccccc4F)O[C@@H]3[C@H]2O1 ?
12

Which zone of inhibition at 100 µg/disc value belongs to CC1(C)O[C@H]2O[C@@H]3COB(c4cccc(/N=C/c5ccccc5O)c4)O[C@@H]3[C@H]2O1 ?
16

Which zone of inhibition at 100 µg/disc value belongs to CC1(C)O[C@H]2O[C@@H]3COB(c4cccc(/C=N/c5ccc(Br)cc5)c4)O[C@@H]3[C@H]2O1 ?
18

Which zone of inhibition at 100 µg/disc value belongs to COc1ccc(/C=N/c2cccc(B3OC[C@H]4O[C@@H]5OC(C)(C)O[C@@H]5[C@H]4O3)c2)c(O)c1 ?
19

====

test system: Salmonella typhi; assay: Antibacterial activity against Salmonella typhi assessed as zone of inhibition at 100 ug/well measured after 24 hrs by agar well diffusion method; type: functional, Salmonella enterica subsp. enterica serovar Typhi; settings: Salmonella enterica, read-out: DIZ
The following ranges of zone of inhibition at 100 µg/disc define the classes used here: group 1: < 10 mm; group 2: ≥ 10 mm and < 20 mm; group 3: ≥ 20 mm

Some entries whose results are on file:
• O=[N+]([O-])c1ccc(O)c(/C=N/c2cccc(B(O)O)c2)c1 = group 2
• COc1ccc(/N=C/c2ccc(B3OC[C@H]4O[C@@H]5OC(C)(C)O[C@@H]5[C@H]4O3)cc2)cc1 = group 2

Now turn to the next compound.
Would you mind sorting CC1(C)O[C@H]2O[C@@H]3COB(c4cccc(/N=C/c5ccc(Br)cc5O)c4)O[C@@H]3[C@H]2O1 into the appropriate category?
group 3

====

Reported MIC values follow for various molecules
system: Micrococcus luteus; assay: Antibacterial activity against Micrococcus luteus MTCC 106 measured after 24 hrs by NCCL protocol based broth dilution method; format: functional; conditions: MTCC 106, 24 h
Please reply with the bare figure in µg/mL and do not write the unit itself.

Which MIC value belongs to CC1(C)O[C@H]2O[C@@H]3COB(c4cccc(C=O)c4)O[C@@H]3[C@H]2O1 ?
250

Which MIC value belongs to CC(C)c1ccc(/N=C/c2cccc(B3OC[C@H]4O[C@@H]5OC(C)(C)O[C@@H]5[C@H]4O3)c2)cc1 ?
250

Which MIC value belongs to CN[C@@H]1[C@H](O[C@H]2[C@H](O[C@H]3[C@H](O)[C@@H](O)[C@H](N=C(N)N)[C@@H](O)[C@@H]3N=C(N)N)O[C@@H](C)[C@]2(O)C=O)O[C@@H](CO)[C@H](O)[C@H]1O.CN[C@@H]1[C@H](O[C@H]2[C@H](O[C@H]3[C@H](O)[C@@H](O)[C@H](N=C(N)N)[C@@H](O)[C@@H]3N=C(N)N)O[C@@H](C)[C@]2(O)C=O)O[C@@H](CO)[C@H](O)[C@H]1O.O=S(=O)(O)O.O=S(=O)(O)O.O=S(=O)(O)O [STREPTOMYCIN SULFATE] ?
31.2

Which MIC value belongs to CC1(C)O[C@H]2O[C@@H]3COB(c4cccc(/C=N/c5ccccc5)c4)O[C@@H]3[C@H]2O1 ?
250

Which MIC value belongs to CC1(C)O[C@H]2O[C@@H]3COB(c4cccc(/N=C/c5cc(Br)ccc5O)c4)O[C@@H]3[C@H]2O1 ?
31.2
